EXPERIMENTAL_PROTOCOL: in vitro
SETUP_CONDITIONS: human, hela cells, % viability
hey, just use label 1 if measured viability at 28.5 h, 10 µM is less than 90%, otherwise label 0

Solved cases (5 shown):
compound="CN(C(=O)CN1C2CCC1CC(O)(c1ccco1)C2)C1CCCCC1 (stereo not shown)" class_assignment="label 0"
compound=Cc1nccc(-c2cccc(NC3CCN(c4ccc5c(c4)OCCO5)CC3)c2)n1 class_assignment="label 0"
compound=COC(=O)C1(Cc2cc(-c3ccc(F)cc3)no2)CCOCC1 class_assignment="label 1"
compound=Cc1sc2nc(SCC(=O)c3c[nH]c4ccccc34)nc(O)c2c1C class_assignment="label 1"
compound=COC(=O)c1ccc(N2CCOCC2)c(NC(=O)COc2ccccc2)c1 class_assignment="label 1"

Q: Is the reported viability at 28.5 h, 10 µM for NS(=O)(=O)c1ccc(NC(=O)c2ccc3ccccc3c2)cc1 strictly below 90%?
Result: label 0

Q: Could you please tell me whether viability at 28.5 h, 10 µM recorded for CCOc1ccccc1Cn1c2ccccc2c2nc3ccccc3nc21 is less than 90%?
Result: label 0
